System: Breast carcinoma cell
Experiment: Inhibitory activity against breast cell line
Assay type: functional, cell-based
Conditions: Homo sapiens, Breast carcinoma cell
pIC50: −log10 of the molar value.
Listed compounds paired with reported pIC50

O=C1[C@H](Cc2c[nH]c3ccccc23)N(Cc2ccccc2)C(=O)[C@@H]2CCCN12	< 4.00
COc1cc([C@H]2c3[nH]c4ccccc4c3C[C@H]3C(=O)N4CCC[C@H]4C(=O)N23)cc(OC)c1OC	4.01

// Input: `COc1cc([C@@H]2c3[nH]c4ccccc4c3C[C@H]3C(=O)N4CCC[C@H]4C(=O)N23)cc(OC)c1O` . Output its pIC50 only.
< 4.00

====

Tested on: Colon cell
Test: Inhibitory activity against Colon cell line
Assay type: functional, cell-based
Conditions: Homo sapiens, Colon cell
Listed compounds paired with reported IC50
Reply numerically in µM, unit not repeated.

COc1cc([C@H]2c3[nH]c4ccccc4c3C[C@H]3C(=O)N4CCC[C@H]4C(=O)N23)cc(OC)c1O	89.1

# evaluate next
// Input: `O=C1[C@@H]2Cc3c([nH]c4ccccc34)[C@H](c3ccccc3)N2C(=O)[C@@H]2CCCN12` . Output its IC50 only.
41.7

====

Tested on: Colon cell
Test: Inhibitory activity against Colon cell line
Assay type: functional, cell-based
Details: Homo sapiens, Colon cell
Listed molecules paired with reported pIC50
// pIC50: -log10(molar conc.)

Here are 2 molecules together with their reported answers.
COc1cc([C@@H]2c3[nH]c4ccccc4c3C[C@H]3C(=O)NCC(=O)N23)cc(OC)c1OC (relative stereo)	5.36
CC(C)=C[C@H]1c2[nH]c3ccccc3c2C[C@H]2C(=O)N3CCC[C@H]3C(=O)N21 (stereo in doubt; 3)	4.27

# evaluate next
// Input: `COc1cc(CN2C(=O)[C@@H]3CCCN3C(=O)[C@@H]2Cc2c[nH]c3ccccc23)cc(OC)c1O` . Output its pIC50 only.
4.06

====

Test system: Breast carcinoma cell
Assay: Inhibitory activity against breast cell line
Type: functional, cell-based
Conditions: Homo sapiens, Breast carcinoma cell
Listed molecules paired with reported IC50
Reply numerically in µM, unit not repeated.

Here are 5 molecules together with their reported answers.
CC(C)C[C@@H]1c2[nH]c3ccccc3c2C[C@H]2C(=O)N3CCC[C@H]3C(=O)N12	87.1
CC(C)C[C@H]1c2[nH]c3ccccc3c2C[C@H]2C(=O)N3CCC[C@H]3C(=O)N21	63.1
COc1cc([C@H]2c3[nH]c4ccccc4c3C[C@H]3C(=O)NCC(=O)N23)cc(OC)c1OC (relative stereo)	93.3
COc1cc([C@@H]2c3[nH]c4ccccc4c3C[C@H]3C(=O)NCC(=O)N23)cc(OC)c1O (relative stereo)	49
COc1cc(CN2C(=O)[C@@H]3CCCN3C(=O)[C@@H]2Cc2c[nH]c3ccccc23)cc(OC)c1O	95.5

# evaluate next
// Input: CC(C)=CCN1C(=O)[C@@H]2CCCN2C(=O)[C@@H]1Cc1c[nH]c2ccccc12 (stereo in doubt) . Output its IC50 only.
89.1
